So I've got a bunch of compounds here, and I need their MIC values.
- Test system: Staphylococcus epidermidis
- TEST_PROTOCOL: Antibacterial activity against Staphylococcus epidermidis
- Format: functional

Hey, can you go through the list below and give me MIC for every item?
1. CCn1cc(C(=O)O)c(=O)c2cc(F)c(N3CCNC(C)C3)c(F)c21 (stereo not given)
2. O=C1C(=O)N(CN2CCN(c3cc4c(cc3F)c(=O)c(C(=O)O)cn4C3CC3)CC2)c2ccccc21
3. Cc1ccc2c(c1)C(=O)C(=O)N2CN1CCN(c2cc3c(cc2F)c(=O)c(C(=O)O)cn3C2CC2)CC1
4. N[C@@H](C(=O)N[C@@H]1C(=O)N2C(C(=O)O)=C(Cl)CS[C@H]12)c1ccccc1 [CEFACLOR ANHYDROUS]
5. CC(=O)NC[C@H]1CN(c2ccc(N3CCOCC3)c(F)c2)C(=O)O1

**A:**
1. 0.25 to 2.5 µg/mL
2. 0.1 to 0.5 µg/mL
3. 0.1 to 0.5 µg/mL
4. 2 to 8 µg/mL
5. 4 to 8 µg/mL

FYI, the data here is from ChEMBL document CHEMBL4613208.
